# Tested on: EMC-BAC-2
# Protocol notes: relative viability (nuclei count vs DMSO), 5 days (fraction); higher = more cells survive
# Settings: first compound 2.53 µM
relative viability strictly less than 0.5 = 1 (yes). Otherwise 0 (no).

Study these solved cases before continuing.
COc1nc(C)cnc1NS(=O)(=O)c1cccnc1-c1ccc(-c2nnco2)cc1 [Zibotentan] + N=C(N)NC(=N)NCCc1ccccc1 [Phenformin] (partner 250 µM); 0 (no)
O=c1cc(-c2cccc3c2Sc2ccccc2S3)oc(N2CCOCC2)c1 + CC(=O)c1c(C)c2cnc(Nc3ccc(N4CCNCC4)cn3)nc2n(C2CCCC2)c1=O [Palbociclib] (partner 0.5 µM); 0 (no)
O=c1cc(-c2cccc3c2Sc2ccccc2S3)oc(N2CCOCC2)c1 + COc1cccc2cc(-c3nc([C@H]4CC[C@H](C(=O)O)CC4)n4ncnc(N)c34)[nH]c12 [OSI-027] (partner 0.5 µM); 1 (yes)

Say whether its relative viability is strictly beneath 0.5. Entry: COc1nc(C)cnc1NS(=O)(=O)c1cccnc1-c1ccc(-c2nnco2)cc1 [Zibotentan] + C[C@@H](Oc1cc(-c2cnn(C3CCNCC3)c2)cnc1N)c1c(Cl)ccc(F)c1Cl [Crizotinib] (partner 1 µM)
0 (no)

Say whether its relative viability is strictly beneath 0.5. Entry: COc1nc(C)cnc1NS(=O)(=O)c1cccnc1-c1ccc(-c2nnco2)cc1 [Zibotentan] + C[C@]1(O)C[C@@H](c2nc(-c3ccc4ccc(-c5ccccc5)nc4c3)c3c(N)nccn32)C1 [Linsitinib] (partner 1 µM)
0 (no)

Say whether its relative viability is strictly beneath 0.5. Entry: O=c1cc(-c2cccc3c2Sc2ccccc2S3)oc(N2CCOCC2)c1 + Nc1nc2[nH]cc(CCc3ccc(C(=O)N[C@@H](CCC(=O)O)C(=O)O)cc3)c2c(=O)[nH]1 [Pemetrexed] (partner 0.2 µM)
1 (yes)

Say whether its relative viability is strictly beneath 0.5. Entry: COc1nc(C)cnc1NS(=O)(=O)c1cccnc1-c1ccc(-c2nnco2)cc1 [Zibotentan] + Nc1nc2[nH]cc(CCc3ccc(C(=O)N[C@@H](CCC(=O)O)C(=O)O)cc3)c2c(=O)[nH]1 [Pemetrexed] (partner 0.2 µM)
1 (yes)

Say whether its relative viability is strictly beneath 0.5. Entry: O=c1cc(-c2cccc3c2Sc2ccccc2S3)oc(N2CCOCC2)c1 + CC1(C)CCC(c2ccc(Cl)cc2)=C(CN2CCN(c3ccc(C(=O)NS(=O)(=O)c4ccc(N[C@H](CCN5CCOCC5)CSc5ccccc5)c(S(=O)(=O)C(F)(F)F)c4)cc3)CC2)C1 [Navitoclax] (partner 0.5 µM)
0 (no)

Say whether its relative viability is strictly beneath 0.5. Entry: COc1nc(C)cnc1NS(=O)(=O)c1cccnc1-c1ccc(-c2nnco2)cc1 [Zibotentan] + CS(=O)(=O)N1CCN(Cc2cc3nc(-c4cccc5[nH]ncc45)nc(N4CCOCC4)c3s2)CC1 [Pictilisib] (partner 1 µM)
0 (no)

Say whether its relative viability is strictly beneath 0.5. Entry: O=c1cc(-c2cccc3c2Sc2ccccc2S3)oc(N2CCOCC2)c1 + CS(=O)(=O)CCNCc1ccc(-c2ccc3ncnc(Nc4ccc(OCc5cccc(F)c5)c(Cl)c4)c3c2)o1 [Lapatinib] (partner 2 µM)
0 (no)
